# System: NCI-H322M
# assay-comment: Growth inhibition of human NCI-H322M cells incubated for 48 hrs by sulforhodamine B assay
# Format: functional
# cond: read-out: LC50 (the source's name)
measurement-name: CC50 (µM)
Dear colleague, please return just the value in µM, with no unit written.

Please review the entries below; each comes with its answer.
1) C=C1CC[C@@H]2[C@](C)(COC(C)=O)[C@H](OC(C)=O)CC[C@@]2(C)[C@H]1CC(Nc1ccc(S(=O)(=O)Nc2cc(C)on2)cc1)C1=CCOC1=O (stereo not given in full) : 44.6
2) C=C1CC[C@@H]2[C@](C)(COC(C)=O)[C@H](OC(C)=O)CC[C@@]2(C)[C@H]1CC(Nc1ccc(S(=O)(=O)Nc2ccc(Cl)nn2)cc1)C1=CCOC1=O (stereo not given in full) : 36.1
3) C=C1CC[C@@H]2[C@](C)(COC(C)=O)[C@H](OC(C)=O)CC[C@@]2(C)[C@H]1CC(Nc1ccc(S(=O)(=O)Nc2nccs2)cc1)C1=CCOC1=O (stereo not given in full) : 51.6
4) C=C1CC[C@@H]2[C@](C)(COC(C)=O)[C@H](OC(C)=O)CC[C@@]2(C)[C@H]1CC(Nc1ccc(S(=O)(=O)Nc2ncccn2)cc1)C1=CCOC1=O (stereo not given in full) : 35.6

Qu. Observed CC50 on NCI-H322M for C=C1CC[C@@H]2[C@](C)(COC(C)=O)[C@H](OC(C)=O)CC[C@@]2(C)[C@H]1CC(Nc1ccc(S(=O)(=O)Nc2nccc(C)n2)cc1)C1=CCOC1=O (stereo not given in full) , please.
Ans. 50.7

Provenance of the data: ChEMBL document CHEMBL4033712
